target: human calpain 9 (Homo sapiens); construct: human calpain 9, residues 27-347, was over expressed in E. coli BL21 (DE3); hexa-histidine (N); made in house; host or cells: E. coli BL21 (DE3); assay: Calpain binding: crystal structure interaction distances, human calpain 9; settings: non-polar interactions with human calpain 9
Sequence (O14815 27-347): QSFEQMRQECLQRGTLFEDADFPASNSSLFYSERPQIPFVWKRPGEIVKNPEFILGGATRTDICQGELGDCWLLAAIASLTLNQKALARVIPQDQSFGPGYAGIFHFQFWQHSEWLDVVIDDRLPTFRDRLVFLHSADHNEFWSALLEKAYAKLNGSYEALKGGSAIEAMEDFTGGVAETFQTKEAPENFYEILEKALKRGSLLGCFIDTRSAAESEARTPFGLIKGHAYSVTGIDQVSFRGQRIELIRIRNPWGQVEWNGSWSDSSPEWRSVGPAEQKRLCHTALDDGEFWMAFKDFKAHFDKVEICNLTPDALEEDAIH
Reported Interaction Distances P3-Gly190 values follow for various compounds
Lab book: enter the figure in Å, no units written.

COMPOUND: NC(=O)C(=O)[C@H](Cc1ccccc1)NC(=O)c1snnc1-c1ccccc1 [Compound 44]
Interaction Distances P3-Gly190 [Å]: 3.3
--
COMPOUND: CCCC[C@H](NC(=O)c1oc(C)nc1-c1ccccc1)C(=O)C(N)=O [Compound 265]
Interaction Distances P3-Gly190 [Å]: 3.4
--
COMPOUND: Cn1cc(C(=O)N[C@@H](Cc2ccccc2)C(=O)C(N)=O)c(-c2ccccc2)n1 [Compound 32]
Interaction Distances P3-Gly190 [Å]: 3.5

Interaction Distances P3-Gly190 measured on NC(=O)C(=O)[C@H](Cc1ccccc1)NC(=O)c1nsnc1-c1ccccc1 [Compound 72] = 3.3

---

Each record here notes measured pIC50.
test system: Calpain activity in SH-SY5Y cells; assay: SH-SY5Y + AMC fluorescence assay (Suc-LLVY-AMC substrate); assay type: cell-based; settings: read-out: SH-SY5Y + AMC IC50
pIC50: −log10 of the molar value.

COMPOUND: Cn1cc(C(=O)NC(Cc2ccccc2)C(=O)C(N)=O)c(C2CCCCC2)n1 (stereo not shown) [Compound 573]
pIC50: > 5.00
--
COMPOUND: Cc1ccc(F)cc1-c1oncc1C(=O)NC(Cc1ccccc1)C(=O)C(N)=O (stereo not shown) [Compound 558]
pIC50: > 5.00
--
COMPOUND: Cn1cc(C(=O)NC(Cc2ccccc2)C(=O)C(N)=O)c(-c2ccccc2C(F)(F)F)n1 (stereo not shown) [Compound 513]
pIC50: > 5.00
--
COMPOUND: Cc1cc(C(=O)NC(Cc2ccccc2)C(=O)C(N)=O)n(-c2ccc(Oc3ccccc3)cc2)n1 (stereo not shown) [Compound 439]
pIC50: < 4.60
--
COMPOUND: NC(=O)C(=O)C(Cc1ccccc1)NC(=O)c1cn(-c2ccccc2F)nc1-c1ccccc1 (stereo not shown) [Compound 527]
pIC50: > 5.00
--
COMPOUND: COc1ccc(F)c(-c2nn(C)cc2C(=O)NC(Cc2ccccc2)C(=O)C(N)=O)c1 (stereo not shown) [Compound 507]
pIC50: > 5.00
--
COMPOUND: Cc1nc(-c2cccc(F)c2F)c(C(=O)NC(Cc2ccccc2)C(=O)C(N)=O)o1 (stereo not shown) [Compound 361]
pIC50: > 5.00
--
COMPOUND: COc1ccc(C[C@H](NC(=O)c2cn(C)nc2-c2ccccc2)C(=O)C(N)=O)cc1 [Compound 420]
pIC50: < 4.60
--
COMPOUND: NC(=O)C(=O)[C@H](Cc1ccccc1)NC(=O)c1cn(C(F)F)nc1-c1ccccc1 [Compound 379]
pIC50: > 5.00
--
COMPOUND: NC(=O)C(=O)C(Cc1ccccc1)NC(=O)c1cn(C(F)F)nc1-c1cncc2ccccc12 (stereo not shown) [Compound 561]
pIC50: 4.60 to 5.00

# pIC50 of NC(=O)C(=O)C(Cc1ccccc1)NC(=O)c1cn(C(F)F)nc1-c1cccc2ccccc12 (stereo not shown) [Compound 547] = > 5.00

// Cc1ccc(C)c(-c2nn(C(F)F)cc2C(=O)NC(Cc2ccccc2)C(=O)C(N)=O)c1 (stereo not shown) [Compound 524] : pIC50 value = > 5.00

pIC50 reading for NC(=O)C(=O)C(CCc1ccccc1)NC(=O)c1nsnc1-c1ccccc1 (stereo not shown) [Compound 463] : < 4.60
